Just for reference, patent US20220220218A1 is where these values come from.

- target-desc: T1, human CD73 (huCD73) protein, antigen of the Biacore assay (human, UniProt P21589 27-547, limits assumed)
- T1 construct: also called human CD73 antigen
- T1 sequence (looked up): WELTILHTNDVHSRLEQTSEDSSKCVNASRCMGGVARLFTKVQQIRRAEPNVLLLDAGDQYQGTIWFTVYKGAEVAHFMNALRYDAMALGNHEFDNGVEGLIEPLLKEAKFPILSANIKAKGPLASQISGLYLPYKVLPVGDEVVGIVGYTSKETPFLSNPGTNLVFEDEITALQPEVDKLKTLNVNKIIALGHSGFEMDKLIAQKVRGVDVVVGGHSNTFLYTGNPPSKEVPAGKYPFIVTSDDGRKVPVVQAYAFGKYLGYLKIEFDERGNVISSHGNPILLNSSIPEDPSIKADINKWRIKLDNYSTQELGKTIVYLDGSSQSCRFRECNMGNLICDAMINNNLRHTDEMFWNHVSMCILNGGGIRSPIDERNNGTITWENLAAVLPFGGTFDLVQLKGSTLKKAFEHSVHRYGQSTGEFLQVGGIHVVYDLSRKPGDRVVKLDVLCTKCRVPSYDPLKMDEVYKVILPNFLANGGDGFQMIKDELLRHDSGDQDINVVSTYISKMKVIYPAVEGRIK
- experiment-description: SPR Biacore T200; antibody captured on Protein A chip, CD73 in flow; 1:1 Langmuir
Rule: koff of 0.0001 s⁻¹ or more gives class 1; anything lower gives class 0.

Known results for binders:
Hab110.21 (antibody, human IgG1, kappa, V domains shown, also called humanized antibody of mab110) VH: EVQLVQSGAEVKKPGASVKVSCKASGYTFTSYTMHWVRQAPGQRLEWMGYINPNSFYIEYNQKFKDRVTITRDTSASTAYMELSSLRSEDTAVYYCARGDYDLFYDMDNWGQGTTVTVSS VL: DIQMTQSPSSLSASVGDRVTITCRASQDIGNSLNWLQQKPGKAIKRLIYATFRLDSGVPSRFSGSRSGTEYTLTISSLQPEDFATYYCQQYASFPWTFGGGTKVEIKR; class 0
Hab127.31f (antibody, V domains shown, VL3 + VH1f, HCDR2 hot-spot variant; full-length antibody) VH: EVQLVQSGAEVKKPGASVKVSCKASGYTFTAYFMNWVRQAPGQGLEWMGRIYHNHGDTFYSQKFKGRVTMTVDKSTSTVYMELSSLRSEDTAVYYCATSYVGDWGQGTTVTVSS VL: DIQMTQSPSSLSASVGDRVTITCRASQDIGDSLNWLQQKPGGALKRLIYATSSLDSGVPSRFSGSGSGTEYTLTISSLQPEDFATYYCLQYASFPWTFGGGTKVEIK; class 0
Hab108.34 (antibody, V domains shown, VL3 + VH4; full-length antibody) VH: EVTLKQSGPGLVKPTETLTLTCTVSGFSLSSYGIQWVRQPPGKGLEWLGVIWSGGSADYNAAFISRLTISKDTSKSQVVLTMTNMDPVDTATYYCAGQYGSVWGQGTLVTVSS VL: DIQMTQSPSSLSASVGDRVTITCRASQDIGDRLNWLQQKPGGAIKRLIYATSSLDSGVPSRFSGSGSGTEYTLTISSLQPEDFATYYCLQYAGSWTFGGGTKVEIK; class 1

Now look at this one.
Textbook exercise: given the entry Hab108.62 (antibody, V domains shown, VL6 + VH2; full-length antibody) VH: EVTLKESGPVLVKPTETLTLTCTVSGFSLSSYGIQWIRQPPGKLLEWLAVIWSGGSADYNAAFISRLTISKDTSKSQVVLTMTNMDPVDTATYYCAGQYGSVWGQGTLVTVSS VL: DIQMTQSPSSLSASVGDRVTITCRASQDIGDRLNWLQQKPGGAIKRLIYATSSLDSGVPKRFSGSGSGTEYTLTISSLQPEDFATYYCLQYAGSWTFGGGTKVEIK , state whether its koff is greater than or equal to 0.0001 s⁻¹.
class 0
